- systemName: T1, recombinant human Tau-412 protein (human, UniProt P10636-7 1-412)
- T1 construct: Analyte of the SPR study; also called human tau (1N4R, 412 amino acids)
- T1 sequence (P10636 other isoform, or with tags, fused parts or gaps limits assumed): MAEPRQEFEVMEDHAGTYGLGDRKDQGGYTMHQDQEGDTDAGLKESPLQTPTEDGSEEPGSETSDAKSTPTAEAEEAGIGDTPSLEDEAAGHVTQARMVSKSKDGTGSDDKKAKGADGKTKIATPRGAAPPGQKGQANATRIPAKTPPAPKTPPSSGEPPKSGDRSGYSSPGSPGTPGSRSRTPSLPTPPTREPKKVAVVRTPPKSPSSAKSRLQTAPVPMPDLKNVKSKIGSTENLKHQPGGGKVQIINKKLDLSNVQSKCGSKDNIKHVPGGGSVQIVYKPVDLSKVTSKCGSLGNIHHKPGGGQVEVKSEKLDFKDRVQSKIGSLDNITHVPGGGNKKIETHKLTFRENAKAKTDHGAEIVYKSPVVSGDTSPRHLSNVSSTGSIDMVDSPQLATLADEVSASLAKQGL
- testSummary: SPR Biacore T200, mAb captured on Protein A, Tau-412 analyte, 1-to-1 model, chip A11/1
property: pKd
Note on units: pKd is unitless, being -log10 of a concentration expressed in mol/L.

{"binder": "VH3/VK2 humanized anti-tau antibody (antibody, human IgG4 S228P, kappa, V domains shown, Humanized variant of HJ8.5) VH: EVQVVESGGGLVQPGGSLKLSCVVSGFTFSNYWVNWVRQAPGKGLEWVAQIRLKSDNYATHYEESVKGRFTISRDDSKNSVYLQMNSLRAEDTAIYYCTNWEDYWGQGTTVTVSS VL: DIVLTQSPDSLAVSLGERATISCRASQSVSTSRYSYIHWYQQKPGQPPKLLIKYASNLESGVPSRFSGSGSGTDFTLNIHPLEPEDFATYYCHHSWEIPLTFGQGTKLEIKR", "pKd": 8.68}
{"binder": "VH2/VK2 humanized anti-tau antibody (antibody, human IgG4 S228P, kappa, V domains shown, Humanized variant of HJ8.5) VH: EVKVVESGGGLVQPGGSLKLSCVVSGFTFSNYWVNWVRQAPGKGLEWVAQIRLKSDNYATHYEESVKGRFTISRDDSKSSVYLQMNSLRAEDTGIYYCTNWEDYWGQGTTVTVSS VL: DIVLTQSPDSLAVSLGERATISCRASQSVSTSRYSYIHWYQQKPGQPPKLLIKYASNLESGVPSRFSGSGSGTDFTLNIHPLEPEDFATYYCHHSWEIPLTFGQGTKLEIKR", "pKd": 8.62}

[Q] So what does the record say about pKd for chimeric HJ8.5 monoclonal antibody (antibody, V domains shown, also called chimera; chimeric antibody) VH: EVKVEESGGGLVQPGGSMKLSCVVSGFTFSNYWVNWVRQSPEKGLEWVAQIRLKSDNYATHYEESVKGRFTISRDDSKSSVYLQMNNLRAEDSGIYYCTNWEDYWGQGTTLTVSS VL: DIVLTQSPASLAVSLGQRATISCRASQSVSTSRYSYIHWYQQKPGQPPKLLIKYASNLESGVPARFSGSGSGTDFTLNIHPLEEEDAATYYCHHSWEIPLTFGAGTKLELK ?
[A] 8.65

[Q] Follow-up entry: VH1/VK2 humanized anti-tau antibody (C2N-8E12) (antibody, human IgG4 S228P, kappa, V domains shown, Humanized recombinant IgG4 with S241P hinge mutation, human kappa light chain; also called C2N-8EI2) VH: EVKVVESGGGLVQPGGSMKLSCVVSGFTFSNYWVNWVRQAPGKGLEWVAQIRLKSDNYATHYEESVKGRFTISRDDSKSSVYLQMNNLRAEDSGIYYCTNWEDYWGQGTTVTVSS VL: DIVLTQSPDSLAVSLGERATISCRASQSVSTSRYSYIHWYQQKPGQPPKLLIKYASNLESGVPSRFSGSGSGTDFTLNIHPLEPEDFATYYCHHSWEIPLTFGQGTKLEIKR
[A] 8.66
